protocol_details: Plasma pharmacokinetics, single dose in rats
Type: in vivo, Sprague-Dawley rats
measurement_context: Sprague-Dawley, rat, iv; i.v. 10 mg/kg, plasma, normal rats
recorded_metric: AUC(0-t) (ng·h/mL)

molecule | reported_value
Cc1nc2c(c3c1[nH]c1ccccc13)C(=O)CC(C)(C)C2 [Example 1] | 2280

* * *

protocol_details: Plasma pharmacokinetics, single dose in rats
Assay type: in vivo, Sprague-Dawley rats
measurement_context: Sprague-Dawley, rat, plasma, iv; i.v. 10 mg/kg, normal rats; read-out: Vdss

molecule | Vd / L/kg
Cc1nc2c(c3c1[nH]c1ccccc13)C(=O)CC(C)(C)C2 [Example 1] | 3.81

* * *

protocol_details: Brain/plasma pharmacokinetics, single i.v. bolus in rats
Type: in vivo, Sprague-Dawley rats
measurement_context: Sprague-Dawley, rat, plasma, intravenous; 10 mg/kg bolus i.v., normal rats, time 4 h; read-out: Mean concentration in plasma

mol | unit_label | concentration at 4 h
Cc1nc2c(c3c1[nH]c1ccccc13)C(=O)CC(C)(C)C2 | ng/mL | 58.7

* * *

protocol_details: Brain/plasma pharmacokinetics, single i.v. bolus in rats
Type: in vivo, Sprague-Dawley rats
measurement_context: Sprague-Dawley, rat, brain and plasma, iv, 10 mg/kg, 10 mg/kg bolus i.v., normal rats, time 0.25 h; read-out: Brain/Plasma Ratio

mol | Kp at 0.25 h
Cc1nc2c(c3c1[nH]c1ccccc13)C(=O)CC(C)(C)C2 | 2.89

* * *

protocol_details: Brain/plasma pharmacokinetics, single i.v. bolus in rats
Type: in vivo, Sprague-Dawley rats
measurement_context: Sprague-Dawley, rat, brain, intravenous; 10 mg/kg bolus i.v., normal rats, time 0.25 h; read-out: Mean concentration in brain

mol | concentration at 0.25 h [ng/mL]
Cc1nc2c(c3c1[nH]c1ccccc13)C(=O)CC(C)(C)C2 | 6900

* * *

protocol_details: Brain/plasma pharmacokinetics, single i.v. bolus in rats
Type: in vivo, Sprague-Dawley rats
measurement_context: Sprague-Dawley, rat, brain, intravenous; 10 mg/kg bolus i.v., normal rats, time 1 h; read-out: Mean concentration in brain
recorded_metric: concentration at 1 h

compound | reported_value
Cc1nc2c(c3c1[nH]c1ccccc13)C(=O)CC(C)(C)C2 [Example 1] | 1030 ng/mL

* * *

protocol_details: Plasma pharmacokinetics, single dose in rats
Assay type: in vivo, Sprague-Dawley rats
measurement_context: Sprague-Dawley, rat, iv; i.v. 2 mg/kg, plasma, normal rats; read-out: MRT0-last
recorded_metric: MRT last (min)

molecule | reported_value
Cc1nc2c(c3c1[nH]c1ccccc13)C(=O)CC(C)(C)C2 [Example 1] | 19.9

* * *

protocol_details: Plasma pharmacokinetics, single dose in rats
Type: in vivo, Sprague-Dawley rats
measurement_context: Sprague-Dawley, rat, po; p.o. 10 mg/kg, plasma, normal rats; read-out: MRT0-inf

compound | MRT inf (min)
Cc1nc2c(c3c1[nH]c1ccccc13)C(=O)CC(C)(C)C2 [Example 1] | 39.3

* * *

protocol_details: Brain/plasma pharmacokinetics, single i.v. bolus in rats
Type: in vivo, Sprague-Dawley rats
measurement_context: Sprague-Dawley, rat, brain, intravenous, 10 mg/kg, 10 mg/kg bolus i.v., normal rats, t = 24 h; read-out: BAUC/PAUC Ratio
recorded_metric: Kp

mol | recorded_metric | reported_value
Cc1nc2c(c3c1[nH]c1ccccc13)C(=O)CC(C)(C)C2 | Kp | 2.56
